Entries and their AUMCt values follow.
- method.notes: AUMC (0 to t) in Wistar rat at 30 mg/kg, iv measured after 24 hrs by HPLC analysis
- Assay type: ADME, organism-based
- reported.conditions: in vivo
Just the number please, in ng·h²/mL, no unit attached.

Below, 3 compounds whose answers are already recorded.
CCCCCCCCCCCCCCCC(=O)OC(C)CCCCn1c(=O)c2c(ncn2C)n(C)c1=O (centres undefined): 29900
CCCCC/C=C/CC=CCCCCCCCC(=O)OC(C)CCCCn1c(=O)c2c(ncn2C)n(C)c1=O (centres undefined): 77100
CC(CCCCn1c(=O)c2c(ncn2C)n(C)c1=O)OC(=O)CCCCC1CCSS1 (centres undefined): 67500

AUMCt lookup needed for CCCCCCCCC=CCCCCCCCC(=O)OC(C)CCCCn1c(=O)c2c(ncn2C)n(C)c1=O (centres undefined) , thanks.
30500
